system: MtAHL1 (Medicago truncatula)
run description: EMSA
condition: EMSA as in Chen (ref. 37), 10 ng probe and 200 ng protein (titration 0-300 ng), SYBR Gold stain; binding buffer, pH and temperature not stated; protein eluted …
measure name: binding

input sequence | binding
GTTTAACAACCTTTCATTATTATTTTTTATTTCTTAGCCAGCCTTTCATAATAGAGATAGGAAAACCAATATTATATTATGTTGATATGAGTGGGTGTGGAATCA (double strand) [probe E] | binds more weakly
GAGATAGGAAAACCAATATTATATTATGTTGATATGAGTGGGTGTGGAATCACACAACGTGAATAAGGTCTCTTGTTTGAGTCTTGTGGTTAAATAAAACGTG (double strand) [probe A] | binds more weakly
CTTTCTTTTATACAAATCATAAAATTATTACTTATAAATAGAGCTCATTATTGTTTAACAACCTTTCATTATTATTTTTTATTTCTTAGCCAGCCTTTCATAATAGAG (double strand) [probe B] | binds more weakly
GACAACTACGATACATCAACGTATTAAAGAGACATTTAATAATTATTTTAATTTTCAAAAAGTATTAATTACAACAACATAATTATTAAAAACTGTTTTGTTGATGTAAACATATC (double strand) [probe G] | binds
GTTAAACAATAATGAGCTCTATTTATAAGTAATAATTTTATGATTTGTATAAAAGAAAGTAATAATTTTGAGACATCTATTCTATGAGCCAAAGAGACAAC (double strand) [probe F] | binds more weakly
GAAAGTAATAATTTTGAGACATCTATTCTATGAGCCAAAGAGACAACTACGATACATCAACGTATTAAAGAGACATTTAATAATTATTTTAATTTTCAAAAAGTATTAATTAC (double strand) [probe C] | binds

Let's switch to this sequence now.
INPUT: For the sequence CCCATTGTTTTTCCCCTTTGCGTGAAATAAGTGTAAAATTATTTTATCACTTTATATAGTAAAAAATCAAATGATATGTTTACATCAACAAAACAGTTTTTAATAATTATGTTGTTGTAATTAATAC (double strand) [probe D] , report binding.
OUTPUT: binds more weakly
